Data origin, for the record: paper doi:10.1101/706168v1

pIC50: −log10 of the molar value.
result.type: pIC50

Fill in the recorded pIC50 for this molecule, with TRPC6 (Homo sapiens, UniProt Q9Y210) as test system: O=C(c1ccccc1F)N1CCN(Cc2c(-c3ccc(Br)cc3)nc3ccccn23)CC1 [BAY 1000493]
Sequence (Q9Y210 whole entry): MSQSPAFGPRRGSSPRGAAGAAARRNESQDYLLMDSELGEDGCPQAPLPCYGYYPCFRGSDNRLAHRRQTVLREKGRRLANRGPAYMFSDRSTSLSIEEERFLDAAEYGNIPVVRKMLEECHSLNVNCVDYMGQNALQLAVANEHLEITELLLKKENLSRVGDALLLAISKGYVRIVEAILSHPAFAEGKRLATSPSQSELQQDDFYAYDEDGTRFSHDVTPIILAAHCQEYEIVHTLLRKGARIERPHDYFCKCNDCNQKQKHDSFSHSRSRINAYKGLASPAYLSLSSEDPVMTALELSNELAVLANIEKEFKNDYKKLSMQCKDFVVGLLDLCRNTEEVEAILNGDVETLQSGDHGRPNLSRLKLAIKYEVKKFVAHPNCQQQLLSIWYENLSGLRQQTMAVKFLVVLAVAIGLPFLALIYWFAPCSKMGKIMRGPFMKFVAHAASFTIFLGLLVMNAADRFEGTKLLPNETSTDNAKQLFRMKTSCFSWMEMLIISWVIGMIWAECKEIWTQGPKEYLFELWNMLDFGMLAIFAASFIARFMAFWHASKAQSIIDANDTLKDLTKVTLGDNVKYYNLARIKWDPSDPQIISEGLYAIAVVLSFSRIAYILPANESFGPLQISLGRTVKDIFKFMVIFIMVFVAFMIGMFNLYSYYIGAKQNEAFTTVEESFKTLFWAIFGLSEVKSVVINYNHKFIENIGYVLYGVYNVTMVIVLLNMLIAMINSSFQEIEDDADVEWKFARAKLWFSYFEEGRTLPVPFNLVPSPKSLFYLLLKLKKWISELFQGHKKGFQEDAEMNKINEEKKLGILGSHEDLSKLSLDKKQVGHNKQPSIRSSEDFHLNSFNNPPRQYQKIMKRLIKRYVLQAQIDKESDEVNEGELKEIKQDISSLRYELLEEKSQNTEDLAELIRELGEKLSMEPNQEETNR
< 4.52

====

Target: Kir3.1/3.4 (Homo sapiens, UniProt P48544+P48549)
Sequence (P48544 1-419): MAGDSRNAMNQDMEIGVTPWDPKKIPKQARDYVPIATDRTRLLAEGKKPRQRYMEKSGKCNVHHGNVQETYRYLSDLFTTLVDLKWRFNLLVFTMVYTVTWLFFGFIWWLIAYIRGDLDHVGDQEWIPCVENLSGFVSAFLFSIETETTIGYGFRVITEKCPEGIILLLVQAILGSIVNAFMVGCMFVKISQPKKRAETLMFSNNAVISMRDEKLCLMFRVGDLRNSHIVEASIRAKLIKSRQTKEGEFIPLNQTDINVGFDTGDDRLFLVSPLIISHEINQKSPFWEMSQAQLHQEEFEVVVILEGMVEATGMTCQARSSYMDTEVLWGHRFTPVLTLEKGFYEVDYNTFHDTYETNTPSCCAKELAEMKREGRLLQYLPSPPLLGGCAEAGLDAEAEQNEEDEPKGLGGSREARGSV
Sequence (P48549 1-501): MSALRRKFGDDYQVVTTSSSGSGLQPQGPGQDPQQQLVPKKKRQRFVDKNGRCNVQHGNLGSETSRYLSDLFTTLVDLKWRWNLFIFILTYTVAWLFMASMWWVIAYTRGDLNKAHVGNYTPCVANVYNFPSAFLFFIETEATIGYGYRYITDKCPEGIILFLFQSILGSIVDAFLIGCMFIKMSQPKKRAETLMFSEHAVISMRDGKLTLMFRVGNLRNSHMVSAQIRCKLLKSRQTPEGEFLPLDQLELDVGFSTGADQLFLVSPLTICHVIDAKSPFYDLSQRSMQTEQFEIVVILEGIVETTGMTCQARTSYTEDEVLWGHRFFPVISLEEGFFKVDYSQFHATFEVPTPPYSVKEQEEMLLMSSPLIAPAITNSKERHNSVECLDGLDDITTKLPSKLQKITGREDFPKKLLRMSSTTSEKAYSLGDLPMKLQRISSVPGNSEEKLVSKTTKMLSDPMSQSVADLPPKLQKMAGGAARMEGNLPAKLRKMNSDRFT
Experiment: cell-based
result.type: IC50

// IC50 lookup, key: O=C(c1ccccc1F)N1CCN(Cc2c(-c3ccc(Br)cc3)nc3ccccn23)CC1 [BAY 1000493]
> 30 µM
